Recorded Potency, one value per entry.
- assayDetails: qHTS Assay for Modulators of miRNAs and/or Inhibitors of miR-21; further: potency means the concentration at half of the fitted maximal effect; nearly all actives have a fitted effect of over 55% in size
- conditions: HeLa miR-21-FLuc reporter, luciferase luminescence, 48 h; actives lower the signal
Among all 340,000 compounds or so, about 3,300 (0.97%) were called active. Not shown: some 9% with an inconclusive outcome. Some of the results follow.

The cases that follow already have their Potency on record.
Cc1cn2c(=O)cc(COC(=O)c3cccc(NC(=O)COc4ccccc4Cl)c3)nc2s1 = 0.329 µM (active)
COc1ccccc1NC(=O)Nc1ccc(N2CCOCC2)cc1 = 8.26 µM (active)
COc1cc(O)c2c(=O)c3c(OC)c(O)ccc3oc2c1 = 13.1 µM (active)
Cc1ccc(N/N=C(\C#N)C(=N)N2CCCCC2)cc1 = 0.521 µM (active)
CCCCOC(=O)c1sc2nc(C)cc(C)c2c1N = 5.85 µM (active)
Cc1ccc2nc3c(cc(S(=O)(=O)c4ccccc4)c(=N)n3Cc3ccco3)c(=O)n2c1 = 5.85 µM (active)
CCc1c(C)sc(NC(=O)c2cccs2)c1C#N = 5.21 µM (active)
CC(=O)Oc1ccc(/C=N/NC(=S)Nc2ccccc2)cc1 = 0.656 µM (active)

// fetch Potency given entry CCc1c(C)sc(NC(=O)c2ccco2)c1C#N
11.7 µM (active)

// fetch Potency given entry Cc1ccc2[nH]c3c(=S)nc[nH]c3c2c1
3.69 µM (active)

// fetch Potency given entry Cc1cc(C)c2c(N)c(C(=O)NCC3CCCCC3)sc2n1
6.56 µM (active)

// fetch Potency given entry COc1ccc2nc(SCC(=O)C(C)(C)C)[nH]c2c1
6.56 µM (active)

// fetch Potency given entry CC(C)OC(=O)c1ccc2nc3ccccc3nc2c1
0.656 µM (active)

// fetch Potency given entry CCOC(=O)C1=NN(c2ccc(Cl)cc2)C(=O)C1
6.56 µM (active)

// fetch Potency given entry COCCNc1oc(/C=C/c2ccccc2)nc1C#N
2.07 µM (active)

// fetch Potency given entry N#Cc1nc(/C=C/c2ccccc2)oc1NCCCN1CCOCC1
10.4 µM (active)

// fetch Potency given entry Cc1ccsc1/C=N\NC(=O)c1cc(C(C)(C)C)[nH]n1
4.14 µM (active)

---

- assayDetails: qHTS Assay for Modulators of miRNAs and/or Inhibitors of miR-21; further: potency means the concentration at half of the fitted maximal effect; nearly all actives have a fitted effect of over 55% in size
- conditions: HeLa miR-21-FLuc reporter, luciferase luminescence, 48 h; actives lower the signal
Out of some 340,000 compounds screened, about 3,300 (0.97%) were called active. Inconclusive results (about 9%) are left out. The list shows a part of the results.
Recorded Potency, one value per entry.

The cases that follow already have their Potency on record.
Cc1ccc(OCCOc2cccc(Br)c2)c([N+](=O)[O-])n1 = 6.56 µM (active)
c1ccc(-c2nnc(-c3ccccc3)nn2)cc1 = 2.07 µM (active)
O=C(Cc1ccccc1[N+](=O)[O-])NCc1ccc(Cl)cc1 = 14.7 µM (active)
CCOC(=O)c1ccc(NC(=O)c2oc3ccc4c(c3c2C)C(=O)CC(C)(CC)O4)cc1 (stereo not given) = 0.208 µM (active)
Cc1sc(NC(=O)C2C3CCC(O3)C2C(=O)O)nc1-c1ccc(CC(C)C)cc1 (stereo not given) = 3.69 µM (active)

// fetch Potency given entry CSc1ccccc1OCc1cc(C(=O)N(C)Cc2nonc2C)no1
8.26 µM (active)

// fetch Potency given entry COc1ccc(OCCOc2ccc(C)nc2[N+](=O)[O-])cc1
13.1 µM (active)

// fetch Potency given entry Nc1ccc(-c2nnc(-c3ccc(N)cc3)o2)cc1
3.29 µM (active)
